- system: neurotensin receptor 1 (NTR1) (Homo sapiens (Human), UniProt P30989)
- Sequence (P30989 whole entry, species assumed): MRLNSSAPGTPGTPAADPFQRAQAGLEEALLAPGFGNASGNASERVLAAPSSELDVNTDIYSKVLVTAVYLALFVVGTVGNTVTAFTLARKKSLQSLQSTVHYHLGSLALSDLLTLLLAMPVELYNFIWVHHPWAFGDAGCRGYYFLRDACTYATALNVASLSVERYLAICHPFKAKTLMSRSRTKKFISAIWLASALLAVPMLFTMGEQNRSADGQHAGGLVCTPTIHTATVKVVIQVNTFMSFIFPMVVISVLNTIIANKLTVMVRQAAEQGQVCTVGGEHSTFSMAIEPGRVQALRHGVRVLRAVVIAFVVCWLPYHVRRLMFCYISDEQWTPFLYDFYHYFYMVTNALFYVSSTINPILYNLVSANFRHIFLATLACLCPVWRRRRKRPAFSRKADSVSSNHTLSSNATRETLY
- test.protocol: NTR1 dose response, high-content imaging beta-arrestin-GFP assay in NTR1-U2OS cells
- Type: cell-based
- measurement.parameters: read-out: EC50
pEC50: −log10 of the molar value.
assay.metric: pEC50

Solved entries (count: 3):
cpd.smiles	pEC50
COc1ncccc1C1CCN(c2nc(C3(F)CC3)nc3c(F)cc(N(C)CCO)cc23)CC1	5.70 to 6.30
COc1ccccc1C1CCN(c2nc(C3(C(F)(F)F)CC3)nc3ccc(N(C)CCO)cc23)CC1	> 6.30
COc1ccccc1C1CCN(c2nc(C3CC3)nc3ccc(CN(C)C)cc23)CC1	< 5.00

With those in mind, consider the next compound.
### Prompt Query: pEC50; subject: CCCN(C)c1ccc2nc(C3(F)CC3)nc(N3CCC(c4ccccc4OC)CC3)c2c1
### Response 5.70 to 6.30

----------
Each record here notes measured pEC50.
- system: neurotensin receptor 1 (NTR1) (Homo sapiens (Human), UniProt P30989)
- test.protocol: NTR1 dose response, high-content imaging beta-arrestin-GFP assay in NTR1-U2OS cells
- Assay type: cell-based
- measurement.parameters: read-out: EC50
pEC50: −log10 of the molar value.

### Prompt Query: pEC50; subject: COc1ccccc1C1CCN(c2nc(OC3CCC3)nc3ccc(N(C)CCO)cc23)CC1 [Example 193]
### Response 5.70 to 6.30

----------
- system: neurotensin receptor 1 (NTR1) (Homo sapiens (Human))
- test.protocol: NTR1 dose response, high-content imaging beta-arrestin-GFP assay in NTR1-U2OS cells
- Type: cell-based
- measurement.parameters: read-out: EC50
- Source text: The cell lines utilized in the high-content imaging assays, which include the NTR1-, NTR2-, and GPR35-U2OS osteosarcomas, were obtained from the laboratory of Dr. Lawrence Barak at the Duke University Medical Center. […]
pEC50: −log10 of the molar value.
assay.metric: pEC50

Solved entries (count: 3):
molecule	value.measured
COc1ccccc1C1CCN(c2nc(C3CC3)nc3ccc(N4CC[C@@H](O)C4)cc23)CC1 [Example 175]	5.70 to 6.30
COc1nccnc1C1CCN(c2nc(C3(C)CC3)nc3c(F)cc(N(C)CCO)cc23)CC1	5.70 to 6.30
COc1ccccc1N(C)C1CCCC1Nc1nc(C2CC2)nc2ccc(N(C)CCO)cc12 (centres unmarked)	< 5.00

### Prompt Query: pEC50; subject: CCCN(C)c1ccc2c(N3CCC(c4ccccc4OC)CC3)nc(C3CC3)nc2c1 [Example 170]
### Response 5.00 to 5.70

### Prompt Let us now turn to COc1nccnc1C1CCN(c2nc(C3(F)CC3)nc3ccc(N(C)CCO)cc23)CC1
### Response 5.70 to 6.30

### Prompt Let us now turn to COc1ccccc1C1CCN(c2nc(C3CC3)nc3ccc(N(C)CCO)c(F)c23)CC1 [Example 132]
### Response 5.70 to 6.30

### Prompt Let us now turn to COCCN(C)c1ccc2nc(C3CC3)nc(N3CCC(c4ccccc4N(C)C)CC3)c2c1
### Response 5.00 to 5.70

### Prompt Let us now turn to COc1ccccc1C1CCN(c2nc(C3CC3)nc3cc(Cl)c(N(C)CCO)cc23)CC1
### Response 5.70 to 6.30

### Prompt Let us now turn to COc1ncccc1C1CCN(c2nc(C3(F)CC3)nc3ccc(N(C)CCO)cc23)CC1
### Response 5.70 to 6.30

### Prompt Let us now turn to CCCN(C)c1cc2c(N3CCC(c4ccccc4OC)CC3)nc(C3CC3)nc2cc1Cl
### Response < 5.00

### Prompt Let us now turn to COc1ccc(F)cc1C1CCN(c2nc(C3CC3)nc3ccc(N(C)CCO)cc23)CC1
### Response 5.70 to 6.30
